Target: hNav1.7 (Homo sapiens (Human), UniProt Q15858)
Test: Tritiated compound binding to membranes from cells heterologously expressing hNav1.7 and the β1 subunit (Nav1.7 LBA)
Conditions: competitive binding vs [3H]compound, membranes with hNav1.7 and β1 subunit; read-out: Nav1.7 LBA EVO IC50
Sequence (Q15858 whole entry, looked up): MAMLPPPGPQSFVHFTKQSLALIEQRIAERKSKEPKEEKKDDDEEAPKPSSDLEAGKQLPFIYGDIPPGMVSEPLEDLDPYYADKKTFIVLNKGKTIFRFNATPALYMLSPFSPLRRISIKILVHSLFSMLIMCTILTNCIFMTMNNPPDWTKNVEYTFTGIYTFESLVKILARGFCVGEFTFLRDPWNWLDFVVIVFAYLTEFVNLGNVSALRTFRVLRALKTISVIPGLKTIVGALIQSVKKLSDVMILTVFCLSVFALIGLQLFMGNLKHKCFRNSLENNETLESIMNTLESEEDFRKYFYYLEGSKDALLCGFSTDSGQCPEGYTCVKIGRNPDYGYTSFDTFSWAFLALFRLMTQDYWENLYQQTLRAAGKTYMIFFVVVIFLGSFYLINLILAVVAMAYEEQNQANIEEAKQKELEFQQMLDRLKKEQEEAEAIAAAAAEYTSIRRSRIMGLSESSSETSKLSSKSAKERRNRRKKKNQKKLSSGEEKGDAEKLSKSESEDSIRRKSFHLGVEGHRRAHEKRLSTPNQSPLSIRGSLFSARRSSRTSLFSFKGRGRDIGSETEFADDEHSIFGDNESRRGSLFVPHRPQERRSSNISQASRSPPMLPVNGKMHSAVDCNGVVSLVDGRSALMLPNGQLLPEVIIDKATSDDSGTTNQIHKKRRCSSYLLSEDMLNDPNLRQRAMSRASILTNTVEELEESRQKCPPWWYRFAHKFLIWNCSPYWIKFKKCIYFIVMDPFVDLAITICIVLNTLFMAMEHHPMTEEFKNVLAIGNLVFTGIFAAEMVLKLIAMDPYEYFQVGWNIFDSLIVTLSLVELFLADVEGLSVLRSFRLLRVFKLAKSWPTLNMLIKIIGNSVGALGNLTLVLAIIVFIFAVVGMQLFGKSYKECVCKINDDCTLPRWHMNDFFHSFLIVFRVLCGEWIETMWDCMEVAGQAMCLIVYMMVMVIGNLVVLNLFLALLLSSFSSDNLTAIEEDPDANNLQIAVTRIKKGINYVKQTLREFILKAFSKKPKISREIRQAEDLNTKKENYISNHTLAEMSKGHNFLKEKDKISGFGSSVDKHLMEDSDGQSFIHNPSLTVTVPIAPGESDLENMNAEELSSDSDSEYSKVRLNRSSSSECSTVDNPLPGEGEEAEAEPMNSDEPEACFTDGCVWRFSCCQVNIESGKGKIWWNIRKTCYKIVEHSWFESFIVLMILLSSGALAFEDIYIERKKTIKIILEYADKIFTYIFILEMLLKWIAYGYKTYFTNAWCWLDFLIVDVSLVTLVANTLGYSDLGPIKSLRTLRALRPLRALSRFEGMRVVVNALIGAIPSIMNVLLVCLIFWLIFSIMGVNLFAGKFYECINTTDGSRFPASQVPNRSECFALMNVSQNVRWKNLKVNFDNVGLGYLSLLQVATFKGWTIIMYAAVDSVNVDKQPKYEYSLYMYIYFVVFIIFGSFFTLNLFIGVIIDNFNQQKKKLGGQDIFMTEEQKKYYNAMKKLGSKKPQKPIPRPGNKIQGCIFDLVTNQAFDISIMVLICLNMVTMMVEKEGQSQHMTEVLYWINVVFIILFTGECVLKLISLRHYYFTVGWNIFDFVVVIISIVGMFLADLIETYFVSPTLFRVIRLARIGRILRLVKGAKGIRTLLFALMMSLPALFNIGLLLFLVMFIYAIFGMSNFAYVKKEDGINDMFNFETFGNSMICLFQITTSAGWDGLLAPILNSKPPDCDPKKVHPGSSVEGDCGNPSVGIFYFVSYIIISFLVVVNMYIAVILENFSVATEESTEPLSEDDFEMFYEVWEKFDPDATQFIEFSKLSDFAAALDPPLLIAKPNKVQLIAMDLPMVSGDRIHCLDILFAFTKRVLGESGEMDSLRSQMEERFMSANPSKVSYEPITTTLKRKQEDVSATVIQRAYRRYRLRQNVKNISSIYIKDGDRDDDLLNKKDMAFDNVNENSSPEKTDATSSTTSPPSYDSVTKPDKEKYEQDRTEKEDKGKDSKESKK
Sequence (Q07699 whole entry partner, looked up): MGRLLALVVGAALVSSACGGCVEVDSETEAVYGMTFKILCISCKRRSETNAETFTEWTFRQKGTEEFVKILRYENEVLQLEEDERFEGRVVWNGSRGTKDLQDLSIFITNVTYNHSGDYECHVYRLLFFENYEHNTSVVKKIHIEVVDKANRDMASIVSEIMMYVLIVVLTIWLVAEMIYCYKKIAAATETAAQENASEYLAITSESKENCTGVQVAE
Where a name gives a salt, the structure may show the parent alone.
quantity.kind: IC50 (nM)

1) CN(C)[C@H]1C[C@@H](c2cccc(C(C)(F)F)c2)CC[C@@H]1Nc1cc(F)c(S(=O)(=O)Nc2ccncn2)cc1Cl [Example 32] | 2.04
2) CN(C)[C@H]1C[C@@H](c2cccc(C(F)(F)F)c2)CC[C@@H]1Oc1cc(F)c(S(=O)(=O)Nc2ccncn2)cc1Br [Example 56] | 1.92
3) CN(C)[C@H]1C[C@@](O)(c2cccc(C(F)(F)F)c2)CC[C@@H]1Nc1cc(F)c(S(=O)(=O)Nc2ccncn2)cc1Cl [Example 35, formate] | 3.95
4) CN(C)[C@H]1C[C@@H](c2cccc(C(F)(F)F)c2)CC[C@@H]1N1CCOc2cc(S(=O)(=O)Nc3ccncn3)c(F)cc21 [Example 2, formate] | 0.686
5) CN(C)[C@H]1C[C@@H](c2ccccc2C(F)(F)F)CC[C@@H]1Nc1cc(F)c(S(=O)(=O)Nc2ccncn2)cc1Cl (single isomer, unassigned) [Example 77] | 643
6) CN(C)[C@H]1C[C@@H](c2cccc(-c3ccnn3C)c2)CC[C@@H]1Nc1cc(F)c(S(=O)(=O)Nc2ccncn2)cc1Cl [Example 21] | 12.9
7) O=S(=O)(Nc1ccncn1)c1cc2c(cc1F)N([C@H]1CC[C@H](c3cccc(C(F)(F)F)c3)C[C@@H]1N1CCCC1)CCO2 [Example 47] | 0.794
8) CN(C)[C@H]1C[C@@H](c2cccc(-n3cccn3)c2)CC[C@@H]1Nc1cc(F)c(S(=O)(=O)Nc2ccncn2)cc1Cl [Example 20, formate] | 9.43
9) CNCCN(C)[C@H]1C[C@@H](c2cccc(C(F)(F)F)c2)CC[C@@H]1Oc1cc(F)c(S(=O)(=O)Nc2ccncn2)cc1Cl [Example 69, formate] | 0.474
10) CN(C)[C@H]1C[C@@H](c2cccc(C(F)(F)F)c2)CC[C@@H]1Oc1ccc(S(=O)(=O)Nc2ccncn2)cc1F [Example 79] | 223
11) O=S(=O)(Nc1ccncn1)c1cc(F)c(N[C@H]2CC[C@H](c3cc(C(F)(F)F)ccc3F)C[C@@H]2N2CCCC2)cc1F [Example 50] | 3.88
12) CN(C)[C@H]1C[C@@H](c2cccc(C(F)(F)F)c2Cl)CC[C@@H]1Oc1cc(F)c(S(=O)(=O)Nc2ccncn2)cc1Cl [Example 92] | 55.7

###

Molecular target: hNav1.7 (Homo sapiens (Human))
Test: Tritiated compound binding to membranes from cells heterologously expressing hNav1.7 and the β1 subunit (Nav1.7 LBA)
Settings: competitive binding vs [3H]compound, membranes with hNav1.7 and β1 subunit; read-out: Nav1.7 LBA EVO IC50
pIC50: −log10 of the molar value. Where a name gives a salt, the structure may show the parent alone.
Reported pIC50 values for the following compounds.
quantity.kind: pIC50

1. CCN[C@H]1C[C@@H](c2cccc(C(F)(F)F)c2)CC[C@@H]1Oc1cc(F)c(S(=O)(=O)Nc2ccncn2)cc1Cl [Example 68, formate] | 8.77
2. CN(C)[C@H]1C[C@@H](c2cccc(C(F)(F)F)c2)CC[C@@H]1Nc1ccc(S(=O)(=O)Nc2ccncn2)cc1F [Example 89, formate] | 7.91
3. CC(C)[C@H](N)C(=O)N[C@H]1C[C@@H](c2cccc(C(F)(F)F)c2)CC[C@@H]1Nc1cc(F)c(S(=O)(=O)Nc2ccncn2)cc1Cl [Example 30, formate] | 7.43
4. CN(C)[C@H]1C[C@@H](c2cccc(C(F)(F)F)c2)CC[C@@H]1Oc1ccc(S(=O)(=O)Nc2ccncn2)c(F)c1 [Example 57, formate] | 7.45
5. CN(C)[C@H]1C[C@@H](c2cccc(OC(F)F)c2)CC[C@@H]1Nc1cc(F)c(S(=O)(=O)Nc2ccncn2)cc1Cl | 8.33
6. O=S(=O)(Nc1ccncn1)c1cc(F)c(N[C@H]2CC[C@H](c3cccc(C(F)(F)F)c3F)C[C@@H]2N2CCCC2)cc1F [Example 70, hydrochloride] | 8.14
7. Cc1cccc([C@H]2CC[C@H](Nc3cc(F)c(S(=O)(=O)Nc4ccncn4)cc3Cl)[C@@H](N(C)C)C2)c1 [Example 11, formate] | 8.12
8. CN(C)[C@H]1C[C@@H](c2cccc(C(F)(F)F)c2)CC[C@@H]1N(C)c1cc(F)c(S(=O)(=O)Nc2ccncn2)cc1Cl [Example 51, formate] | 6.77
9. CN1CC(N(C)[C@H]2C[C@@H](c3cccc(C(F)(F)F)c3)CC[C@@H]2Oc2cc(F)c(S(=O)(=O)Nc3ccncn3)cc2Cl)C1 [Example 81, formate] | 9.18
10. CN1CC(C(=O)N(C)[C@H]2C[C@@H](c3cccc(C(F)(F)F)c3)CC[C@@H]2Nc2cc(F)c(S(=O)(=O)Nc3ccncn3)cc2Cl)C1 | 8.68
11. CN(C)[C@H]1C[C@@H](Cc2cccc(C(F)(F)F)c2)CC[C@@H]1Nc1cc(F)c(S(=O)(=O)Nc2ccncn2)cc1Cl | 8.19
12. O=S(=O)(Nc1ccncn1)c1cc(F)c(N[C@H]2CC[C@H](c3ccc(F)c(C(F)(F)F)c3)C[C@@H]2N2CCCC2)cc1F | 9.06
13. CN(C)[C@H]1C[C@@H](c2cccc(C(F)(F)F)c2)CC[C@@H]1n1c(=O)oc2cc(S(=O)(=O)Nc3ccncn3)c(F)cc21 [Example 3, formate] | 7.08
14. O=S(=O)(Nc1ccncn1)c1cc(F)c(N[C@H]2CC[C@H](c3cccc(C(F)(F)F)c3)C[C@@H]2N2CCCCC2)cc1F [Example 62, formate] | 9.09
15. O=CO.[2H]C([2H])([2H])N([C@H]1C[C@@H](c2cccc(C(F)(F)F)c2)CC[C@@H]1Nc1cc(F)c(S(=O)(=O)Nc2ccncn2)cc1Cl)C([2H])([2H])[2H] | 9.17
16. CN1CC(N[C@H]2C[C@@H](c3cccc(C(F)(F)F)c3)CC[C@@H]2Oc2cc(F)c(S(=O)(=O)Nc3ccncn3)cc2Cl)C1 | 8.10

###

// values below are reported log10 IC50
Biological target: hNav1.7 (Homo sapiens (Human), UniProt Q15858)
Test: Electrophysiological assay (EP), voltage clamp on Syncropatch 384PE, CHO cells stably expressing Nav1.7
Format: cell-based
Conditions: holding potential −50 mV, 7.5 min compound incubation, read-out: EP_SP hNav1.7 EVO IC50
Sequence (Q15858 other isoform, or with tags, fused parts or gaps): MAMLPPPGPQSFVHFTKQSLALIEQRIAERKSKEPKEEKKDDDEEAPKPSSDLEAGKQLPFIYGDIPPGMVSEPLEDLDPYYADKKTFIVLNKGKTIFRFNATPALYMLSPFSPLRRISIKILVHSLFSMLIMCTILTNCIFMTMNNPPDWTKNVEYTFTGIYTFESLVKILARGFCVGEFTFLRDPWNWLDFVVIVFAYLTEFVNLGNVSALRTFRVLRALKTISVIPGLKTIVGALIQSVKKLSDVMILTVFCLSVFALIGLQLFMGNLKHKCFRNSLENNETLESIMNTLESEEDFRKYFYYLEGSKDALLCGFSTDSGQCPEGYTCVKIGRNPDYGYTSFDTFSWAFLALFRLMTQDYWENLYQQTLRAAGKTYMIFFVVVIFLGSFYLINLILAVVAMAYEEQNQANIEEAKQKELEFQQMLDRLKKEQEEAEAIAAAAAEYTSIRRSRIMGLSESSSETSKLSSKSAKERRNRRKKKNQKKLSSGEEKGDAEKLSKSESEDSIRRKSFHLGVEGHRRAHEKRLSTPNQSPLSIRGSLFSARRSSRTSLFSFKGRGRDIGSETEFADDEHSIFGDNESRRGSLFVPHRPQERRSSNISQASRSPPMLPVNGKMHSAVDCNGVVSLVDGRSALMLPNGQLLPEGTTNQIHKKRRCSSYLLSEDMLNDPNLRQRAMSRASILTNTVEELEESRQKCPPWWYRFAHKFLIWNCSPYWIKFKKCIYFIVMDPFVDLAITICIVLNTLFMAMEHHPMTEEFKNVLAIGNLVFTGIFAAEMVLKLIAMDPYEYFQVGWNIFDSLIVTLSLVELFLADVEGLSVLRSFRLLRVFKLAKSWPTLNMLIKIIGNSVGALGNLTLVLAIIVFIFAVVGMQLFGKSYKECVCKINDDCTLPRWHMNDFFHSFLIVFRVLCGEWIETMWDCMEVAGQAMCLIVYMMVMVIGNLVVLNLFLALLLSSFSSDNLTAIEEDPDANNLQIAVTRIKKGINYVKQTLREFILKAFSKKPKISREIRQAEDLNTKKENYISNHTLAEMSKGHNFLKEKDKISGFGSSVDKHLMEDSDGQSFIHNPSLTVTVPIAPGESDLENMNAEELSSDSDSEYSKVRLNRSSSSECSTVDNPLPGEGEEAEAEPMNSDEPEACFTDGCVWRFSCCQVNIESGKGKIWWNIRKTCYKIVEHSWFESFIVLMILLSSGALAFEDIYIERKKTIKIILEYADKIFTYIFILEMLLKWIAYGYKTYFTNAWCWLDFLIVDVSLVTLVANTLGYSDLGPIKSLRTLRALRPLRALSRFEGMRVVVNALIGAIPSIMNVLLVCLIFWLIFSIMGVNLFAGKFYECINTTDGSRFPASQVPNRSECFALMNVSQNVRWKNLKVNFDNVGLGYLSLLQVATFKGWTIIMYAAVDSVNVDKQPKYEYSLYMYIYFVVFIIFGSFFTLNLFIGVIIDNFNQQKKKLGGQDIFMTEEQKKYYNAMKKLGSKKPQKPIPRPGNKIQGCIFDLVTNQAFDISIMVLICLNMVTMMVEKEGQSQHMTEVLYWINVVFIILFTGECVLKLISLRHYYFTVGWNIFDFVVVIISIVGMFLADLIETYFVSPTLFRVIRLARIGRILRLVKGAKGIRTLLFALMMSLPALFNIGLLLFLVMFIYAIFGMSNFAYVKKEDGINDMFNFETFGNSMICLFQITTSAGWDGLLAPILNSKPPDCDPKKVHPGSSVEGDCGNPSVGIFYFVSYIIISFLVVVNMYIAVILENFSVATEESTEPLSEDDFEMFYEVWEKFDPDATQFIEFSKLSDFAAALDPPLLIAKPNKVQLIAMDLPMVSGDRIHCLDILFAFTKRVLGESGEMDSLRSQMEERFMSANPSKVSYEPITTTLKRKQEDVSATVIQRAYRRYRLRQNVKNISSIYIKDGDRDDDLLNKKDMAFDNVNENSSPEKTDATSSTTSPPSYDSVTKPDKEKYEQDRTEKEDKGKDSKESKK
Structures can show the parent of a compound that is named as a salt.
quantity.kind: log10 IC50 (log10 of the value in nM)

1. CN(C)[C@H]1C[C@@H](c2cccc(C(F)(F)F)c2)CC[C@@H]1N1CCOc2cc(S(=O)(=O)Nc3ccncn3)c(F)cc21 [Example 2, formate] | 0.00
2. CN(C)[C@H]1C[C@@H](c2cccc(C(C)(F)F)c2)CC[C@@H]1Oc1cc(F)c(S(=O)(=O)Nc2ccncn2)cc1Cl [Example 91] | 0.08
3. O=S(=O)(Nc1ccncn1)c1cc(O)c(N[C@H]2CC[C@H](c3cccc(C(F)(F)F)c3)C[C@@H]2N2CCCC2)cc1F [Example 46, formate] | 0.28
4. O=S(=O)(Nc1ccncn1)c1cc(F)c(N[C@H]2CC[C@H](c3cccc(C(F)(F)F)c3)C[C@@H]2N2CCCCC2)cc1F [Example 62, formate] | -0.20
5. O=S(=O)(Nc1ccncn1)c1cc(F)c(N[C@H]2CC[C@H](c3cc(C(F)(F)F)ccc3F)C[C@@H]2N2CCCC2)cc1F [Example 50] | 0.08
6. CN(C)[C@H]1C[C@@H](c2ccc(Cl)c(C(F)(F)F)c2)CC[C@@H]1Nc1cc(F)c(S(=O)(=O)Nc2ccncn2)cc1Cl [Example 7] | -0.49
7. CN1CC[C@@H](C(=O)N(C)[C@H]2C[C@@H](c3cccc(C(F)(F)F)c3)CC[C@@H]2Nc2cc(F)c(S(=O)(=O)Nc3ccncn3)cc2Cl)C1 [Example 34] | -0.17
8. O=S(=O)(Nc1ccncn1)c1cc(F)c(N[C@H]2CC[C@H](c3cccc(OC(F)(F)F)c3)C[C@@H]2N2CCCC2)cc1F [Example 61, formate] | -0.49
9. CN(C)[C@H]1C[C@@H](c2cc(Cl)cc(Cl)c2)CC[C@@H]1Oc1cc(F)c(S(=O)(=O)Nc2ccncn2)cc1Cl [Example 82, formate] | -0.45
10. CN[C@H]1C[C@@H](c2cccc(C(F)(F)F)c2)CC[C@@H]1Oc1cc(F)c(S(=O)(=O)Nc2ccncn2)cc1Cl [Example 63] | -0.15
11. CN1CC(N(C)[C@H]2C[C@@H](c3cccc(C(F)(F)F)c3)CC[C@@H]2Oc2cc(F)c(S(=O)(=O)Nc3ccncn3)cc2Cl)C1 [Example 81, formate] | -0.48
12. CNCCN(C)[C@H]1C[C@@H](c2cccc(C(F)(F)F)c2)CC[C@@H]1Oc1cc(F)c(S(=O)(=O)Nc2ccncn2)cc1Cl [Example 69, formate] | -0.76
13. O=S(=O)(Nc1ccncn1)c1cc(F)c(O[C@H]2CC[C@H](c3cccc(C(F)(F)F)c3)C[C@@H]2N2CCCC2)cc1F [Example 58] | 0.44
14. CN(CCO)[C@H]1C[C@@H](c2cccc(C(F)(F)F)c2)CC[C@@H]1Oc1cc(F)c(S(=O)(=O)Nc2ccncn2)cc1Cl [Example 66, formate] | -0.14
15. CN(C1CCC1)[C@H]1C[C@@H](c2cccc(C(F)(F)F)c2)CC[C@@H]1Nc1cc(F)c(S(=O)(=O)Nc2ccncn2)cc1F [Example 40, formate] | -0.04
16. CN(C)[C@H]1C[C@](O)(c2cccc(C(F)(F)F)c2)CC[C@@H]1Nc1cc(F)c(S(=O)(=O)Nc2ccncn2)cc1Cl (single isomer, unassigned) [Example 37] | 2.57
